Task for the reader: assign each of the following compounds its reported viability, T/C.
tested on: 945468-187-T-J3-PDC spheroids with HUVEC/MSC, viability; test: Anticancer human tumor 945468-187-T-J3-PDC patient-derived rectal carcinoma cell line growth inhibition [PI3K]; details: second compound 0.316 µM; first compound 0.1 µM; active compounds read low
Numbers only, in %.

Sample records with viability, T/C:
Compound	Target Or System	Result Value
CCN1CCN(Cc2ccc(Nc3ncc(F)c(-c4cc(F)c5nc(C)n(C(C)C)c5c4)n3)nc2)CC1 + COc1c(OCCCN2CCOCC2)ccc2c3n(c(=NC(=O)c4cnc(N)nc4)nc12)CCN3	945468-187-T-J3-PDC spheroids with HUVEC/MSC, viability	16.9
C=CC(=O)N1CCN(c2nc(=O)n(-c3c(C)ccnc3C(C)C)c3nc(-c4c(O)cccc4F)c(F)cc23)C(C)C1 (stereo not drawn) + CC(Nc1ncnc2nc[nH]c12)c1cc2cccc(Cl)c2c(=O)n1-c1ccccc1	945468-187-T-J3-PDC spheroids with HUVEC/MSC, viability	92.9

**Query** Item CC(C)n1nc(-c2ccc3oc(N)nc3c2)c2c(N)ncnc21 + COc1c(OCCCN2CCOCC2)ccc2c3n(c(=NC(=O)c4cnc(N)nc4)nc12)CCN3 has what recorded viability, T/C?
**Result** 13.7

###

tested on: 945468-187-T-J3-PDC spheroids with HUVEC/MSC, viability; experiment: Anticancer human tumor 945468-187-T-J3-PDC cell line growth inhibition [PI3K]; conditions: second compound 0.0316 µM; first compound 0.949 µM; active compounds read low
Task for the reader: assign each of the following compounds its reported viability, T/C.
Answers are plain numbers, in %.

Compound	Target Or System	viability, T/C (%)
Cn1cnc2c(F)c(Nc3ccc(Br)cc3Cl)c(C(=O)NOCCO)cc21 + Cc1nc(NC(=O)N2CCCC2C(N)=O)sc1-c1ccnc(C(C)(C)C(F)(F)F)c1	945468-187-T-J3-PDC spheroids with HUVEC/MSC, viability	123
Cn1cnc2c(F)c(Nc3ccc(Br)cc3Cl)c(C(=O)NOCCO)cc21 + CC(Nc1ccc2c(c1)OCCn1cc(N3C(=O)OCC3C(F)F)nc1-2)C(N)=O	945468-187-T-J3-PDC spheroids with HUVEC/MSC, viability	97.1
Cn1cnc2c(F)c(Nc3ccc(Br)cc3Cl)c(C(=O)NOCCO)cc21 + COc1c(OCCCN2CCOCC2)ccc2c3n(c(=NC(=O)c4cnc(N)nc4)nc12)CCN3	945468-187-T-J3-PDC spheroids with HUVEC/MSC, viability	27.8

Now turn to the next compound.
**Query** Item Cn1cnc2c(F)c(Nc3ccc(Br)cc3Cl)c(C(=O)NOCCO)cc21 + CC(Nc1ncnc2nc[nH]c12)c1cc2cccc(Cl)c2c(=O)n1-c1ccccc1 has what recorded viability, T/C?
**Result** 104

###

tested on: 945468-187-T-J3-PDC spheroids with HUVEC/MSC, viability; experiment: Anticancer human tumor 945468-187-T-J3-PDC cell line growth inhibition [PI3K]; conditions: second compound 1 µM; first compound 10 µM; active compounds read low;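 note: spheroids exposed to agents for 7 days before viability read; 100% = DMSO vehicle control viability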
Our labelling divides records by viability, T/C into ranges: low-valued: < 30%; mid-valued: ≥ 30% and < 90%; high-valued: ≥ 90%

Molecule	Target Or System	Answer Label
CCCS(=O)(=O)Nc1ccc(F)c(C(=O)c2c[nH]c3ncc(-c4ccc(Cl)cc4)cc23)c1F + CC(Nc1ncnc2nc[nH]c12)c1cc2cccc(Cl)c2c(=O)n1-c1ccccc1	945468-187-T-J3-PDC spheroids with HUVEC/MSC, viability	mid-valued

**Query** For the record CCCS(=O)(=O)Nc1ccc(F)c(C(=O)c2c[nH]c3ncc(-c4ccc(Cl)cc4)cc23)c1F + Cc1nc(NC(=O)N2CCCC2C(N)=O)sc1-c1ccnc(C(C)(C)C(F)(F)F)c1 , report the class its viability, T/C corresponds to.
**Result** mid-valued

**Query** For the record CC1(C)CCC(CN2CCN(c3ccc(C(=O)NS(=O)(=O)c4ccc(NCC5CCOCC5)c([N+](=O)[O-])c4)c(Oc4cnc5[nH]ccc5c4)c3)CC2)=C(c2ccc(Cl)cc2)C1 + CC(Nc1ncnc2nc[nH]c12)c1cc2cccc(Cl)c2c(=O)n1-c1ccccc1 , report the class its viability, T/C corresponds to.
**Result** high-valued

**Query** For the record Cn1nccc1Nc1nccc(-c2ccn(C(CO)c3ccc(Cl)c(F)c3)c(=O)c2)n1 (stereo unspecified) + CC(Nc1ncnc2nc[nH]c12)c1cc2cccc(Cl)c2c(=O)n1-c1ccccc1 , report the class its viability, T/C corresponds to.
**Result** high-valued

**Query** For the record CC(C)NCC(C(=O)N1CCN(c2ncnc3c2C(C)CC3O)CC1)c1ccc(Cl)cc1 (stereo unspecified) + COc1c(OCCCN2CCOCC2)ccc2c3n(c(=NC(=O)c4cnc(N)nc4)nc12)CCN3 , report the class its viability, T/C corresponds to.
**Result** low-valued

**Query** For the record Cn1nccc1Nc1nccc(-c2ccn(C(CO)c3ccc(Cl)c(F)c3)c(=O)c2)n1 (stereo unspecified) + COc1c(OCCCN2CCOCC2)ccc2c3n(c(=NC(=O)c4cnc(N)nc4)nc12)CCN3 , report the class its viability, T/C corresponds to.
**Result** low-valued

###

system: 945468-187-T-J3-PDC spheroids with HUVEC/MSC, viability; test: Anticancer human tumor 945468-187-T-J3-PDC cell line growth inhibition [PI3K]; conditions: second compound 0.316 µM; first compound 0.1 µM; active compounds read low;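 note: spheroids exposed to agents for 7 days before viability read; 100% = DMSO vehicle control viability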
Recorded Metric: viability, T/C (%)
One number for each entry, in %.

Sample records with viability, T/C:
Compound	Measurement Unit	Result Value
CC(=O)c1c(C)c2cnc(Nc3ccc(N4CCNCC4)cn3)nc2n(C2CCCC2)c1=O + COc1c(OCCCN2CCOCC2)ccc2c3n(c(=NC(=O)c4cnc(N)nc4)nc12)CCN3	%	17.6
C[C@@H](NC(=O)c1ncnc(N)c1Cl)c1ncc(C(=O)Nc2cc(C(F)(F)F)c(Cl)cn2)s1 + COc1c(OCCCN2CCOCC2)ccc2c3n(c(=NC(=O)c4cnc(N)nc4)nc12)CCN3	%	22.8

Now turn to the next compound.
**Query** Lab note: need viability, T/C for CC(Cn1ccc(-c2ccc(C#N)c(Cl)c2)n1)NC(=O)c1cc(C(C)O)[nH]n1 (stereo not drawn) + COc1c(OCCCN2CCOCC2)ccc2c3n(c(=NC(=O)c4cnc(N)nc4)nc12)CCN3 on 945468-187-T-J3-PDC spheroids with HUVEC/MSC, viability, anyone have it?
**Result** 24.2

###

tested on: 945468-187-T-J3-PDC spheroids with HUVEC/MSC, viability; assay: Anticancer human tumor 945468-187-T-J3-PDC cell line growth inhibition [PI3K]; conditions: second compound 0.1 µM; first compound 0.316 µM; active compounds read low;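 note: spheroids exposed to agents for 7 days before viability read; 100% = DMSO vehicle control viability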
Task for the reader: assign each of the following molecules its reported viability, T/C.
Give bare numbers, in %.

Sample records with viability, T/C:
Molecule	viability, T/C (%)
CNC(=O)c1ccc(N2C(=S)N(c3ccc(C#N)c(C(F)(F)F)c3)C(=O)C2(C)C)cc1F + CC(Nc1ccc2c(c1)OCCn1cc(N3C(=O)OCC3C(F)F)nc1-2)C(N)=O	125
CCN1CCN(Cc2ccc(Nc3ncc(F)c(-c4cc(F)c5nc(C)n(C(C)C)c5c4)n3)nc2)CC1 + CC(Nc1ncnc2nc[nH]c12)c1cc2cccc(Cl)c2c(=O)n1-c1ccccc1	102

Now turn to the next molecule.
**Query** Item CNC(=O)c1ccc(N2C(=S)N(c3ccc(C#N)c(C(F)(F)F)c3)C(=O)C2(C)C)cc1F + Cc1nc(NC(=O)N2CCCC2C(N)=O)sc1-c1ccnc(C(C)(C)C(F)(F)F)c1 has what recorded viability, T/C?
**Result** 99.7

###

Task for the reader: assign each of the following compounds its reported viability, T/C.
tested on: 945468-187-T-J3-PDC spheroids with HUVEC/MSC, viability; assay: Anticancer human tumor 945468-187-T-J3-PDC cell line growth inhibition [PI3K]; conditions: second compound 0.00316 µM; first compound 3.16 µM; active compounds read low;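 note: spheroids exposed to agents for 7 days before viability read; 100% = DMSO vehicle control viability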
Give bare numbers, in %.

Sample records with viability, T/C:
Compound	Recorded Metric	Result Value
C#Cc1c(F)ccc2cc(O)cc(-c3ncc4c(N5CC6CCC(C5)N6)nc(OCC56CCCN5CC(F)C6)nc4c3F)c12 (stereo unspecified) + CC(Nc1ccc2c(c1)OCCn1cc(N3C(=O)OCC3C(F)F)nc1-2)C(N)=O	viability, T/C	120
CC1(C)CCC(CN2CCN(c3ccc(C(=O)NS(=O)(=O)c4ccc(NCC5CCOCC5)c([N+](=O)[O-])c4)c(Oc4cnc5[nH]ccc5c4)c3)CC2)=C(c2ccc(Cl)cc2)C1 + CC(Nc1ccc2c(c1)OCCn1cc(N3C(=O)OCC3C(F)F)nc1-2)C(N)=O	viability, T/C	131
C=CC(=O)N1CCN(c2nc(=O)n(-c3c(C)ccnc3C(C)C)c3nc(-c4c(O)cccc4F)c(F)cc23)C(C)C1 (stereo unspecified) + COc1c(OCCCN2CCOCC2)ccc2c3n(c(=NC(=O)c4cnc(N)nc4)nc12)CCN3	viability, T/C	95.8
CC1(C)CCC(Nc2ncc(C(F)(F)F)c(-c3c[nH]c4c(P(C)(C)=O)c(C#N)ccc34)n2)CN1 (stereo unspecified) + COc1c(OCCCN2CCOCC2)ccc2c3n(c(=NC(=O)c4cnc(N)nc4)nc12)CCN3	viability, T/C	78.7
CC(C)NCC(C(=O)N1CCN(c2ncnc3c2C(C)CC3O)CC1)c1ccc(Cl)cc1 (stereo unspecified) + CC(Nc1ccc2c(c1)OCCn1cc(N3C(=O)OCC3C(F)F)nc1-2)C(N)=O	viability, T/C	58.6

Would you mind listing viability, T/C for each of the following compounds?
1. C[C@@H](NC(=O)c1ncnc(N)c1Cl)c1ncc(C(=O)Nc2cc(C(F)(F)F)c(Cl)cn2)s1 + COc1c(OCCCN2CCOCC2)ccc2c3n(c(=NC(=O)c4cnc(N)nc4)nc12)CCN3
2. CCCS(=O)(=O)Nc1ccc(F)c(C(=O)c2c[nH]c3ncc(-c4ccc(Cl)cc4)cc23)c1F + COc1c(OCCCN2CCOCC2)ccc2c3n(c(=NC(=O)c4cnc(N)nc4)nc12)CCN3
3. CC(Cn1ccc(-c2ccc(C#N)c(Cl)c2)n1)NC(=O)c1cc(C(C)O)[nH]n1 (stereo unspecified) + COc1c(OCCCN2CCOCC2)ccc2c3n(c(=NC(=O)c4cnc(N)nc4)nc12)CCN3
4. C[C@@H](NC(=O)c1ncnc(N)c1Cl)c1ncc(C(=O)Nc2cc(C(F)(F)F)c(Cl)cn2)s1 + CC(Nc1ccc2c(c1)OCCn1cc(N3C(=O)OCC3C(F)F)nc1-2)C(N)=O
5. C#Cc1c(F)ccc2cc(O)cc(-c3ncc4c(N5CC6CCC(C5)N6)nc(OCC56CCCN5CC(F)C6)nc4c3F)c12 (stereo unspecified) + COc1c(OCCCN2CCOCC2)ccc2c3n(c(=NC(=O)c4cnc(N)nc4)nc12)CCN3

**Result**
98.4
87.2
93.9
111
108

**Query** Item CNC(=O)c1ccc(N2C(=S)N(c3ccc(C#N)c(C(F)(F)F)c3)C(=O)C2(C)C)cc1F + COc1c(OCCCN2CCOCC2)ccc2c3n(c(=NC(=O)c4cnc(N)nc4)nc12)CCN3 has what recorded viability, T/C?
**Result** 98.2
